biological target: V1a receptor (Homo sapiens, UniProt P37288); construct: host or cells: CHO cells; test: V1a Human Vasopressin GPCR Cell Based Agonist Calcium Flux Assay; details: Table 3; CHO cells expressing human V1 receptor; read-out: Estimated V1a EC50 (nM); n = 2
Sequence (P37288 whole entry): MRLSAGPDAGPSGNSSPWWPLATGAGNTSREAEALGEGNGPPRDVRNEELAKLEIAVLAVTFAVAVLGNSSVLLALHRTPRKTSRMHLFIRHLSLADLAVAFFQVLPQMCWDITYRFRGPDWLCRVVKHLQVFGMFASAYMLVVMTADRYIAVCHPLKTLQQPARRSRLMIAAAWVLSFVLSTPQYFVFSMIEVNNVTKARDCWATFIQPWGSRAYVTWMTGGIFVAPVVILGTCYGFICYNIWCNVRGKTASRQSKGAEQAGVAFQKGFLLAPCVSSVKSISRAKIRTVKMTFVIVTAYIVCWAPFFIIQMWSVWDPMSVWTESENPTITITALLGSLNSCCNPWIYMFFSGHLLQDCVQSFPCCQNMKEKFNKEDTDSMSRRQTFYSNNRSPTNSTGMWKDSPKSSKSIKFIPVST
REPORTED_PROPERTY: EC50 (nM)
Please respond with the number in nM and leave the unit unwritten.

{"SMI": "NCC(=O)NCC(=O)NCCCC[C@H](NC(=O)[C@@H]1CCCN1C(=O)[C@@H]1CSSCCC(=O)N[C@@H](Cc2ccc(O)cc2)C(=O)N[C@@H](Cc2ccccc2)C(=O)N[C@@H](CCCC(N)=O)C(=O)N[C@@H](CC(N)=O)C(=O)N1)C(=O)NCC(N)=O", "REPORTED_PROPERTY": "EC50", "READOUT_UNIT": "nM", "NUMERIC_VALUE": 38.2}

Please turn your attention to the following entry.
Query: Retrieve EC50 on V1a receptor (Homo sapiens, UniProt P37288); query NCC(=O)NCC(=O)NCC(=O)NCC(=O)NCCCC[C@H](NC(=O)[C@@H]1CCCN1C(=O)[C@@H]1CSSCCC(=O)N[C@@H](Cc2ccc(O)cc2)C(=O)N[C@@H](Cc2ccccc2)C(=O)N[C@@H](CCCC(N)=O)C(=O)N[C@@H](CC(N)=O)C(=O)N1)C(=O)NCC(N)=O
Result: 161

====

assay: Therapeutic index (NOAEL/NOEL): paleness, lethargy, ataxia observation in Sprague-Dawley rats (Example 7); assay type: in vivo; conditions: male, Sprague-Dawley, in vivo, iv; I.V.; rat; read-out: Highest dose with no-observed adverse effect level without lethargy (NOAEL)
Where a SMILES comes first, the peptide text is derived from it. Bridges are numbered along the chain shown (N, C = ends).
REPORTED_PROPERTY: NOAEL at 24 h (mg/kg)
Give the number; mg/kg is assumed, so skip it.

Query: For the compound NCCCC[C@H](NC(=O)[C@@H]1CCCN1C(=O)[C@@H]1CSSC[C@H](NC(=O)CNC(=O)CNC(=O)CN)C(=O)N[C@@H](Cc2ccc(O)cc2)C(=O)N[C@@H](Cc2ccccc2)C(=O)N[C@@H](CCC(N)=O)C(=O)N[C@@H](CC(N)=O)C(=O)N1)C(=O)NCC(N)=O [Terlipressin, reference compound] (H-GGGCYFQNCPKG-NH2; disulfide 4-9) , give its measured NOAEL at 24 h value.
Result: 0.05

====

test: Therapeutic index (NOAEL/NOEL): paleness, lethargy, ataxia observation in Sprague-Dawley rats (Example 7); format: in vivo; conditions: rat, in vivo, sc
Reported Marked adverse effect (Lowest dose first showed Ataxia) by item:
Kindly answer with a numeric value in mg/kg, unit omitted.

{"SMI": "NCC(=O)NCC(=O)NCC(=O)NCC(=O)NCC(=O)NCC(=O)NCCCC[C@H](NC(=O)[C@@H]1CCCN1C(=O)[C@@H]1CSSCCC(=O)N[C@@H](Cc2ccc(O)cc2)C(=O)N[C@@H](Cc2ccccc2)C(=O)N[C@@H](CCC(N)=O)C(=O)N[C@@H](CC(N)=O)C(=O)N1)C(=O)NCC(N)=O", "NUMERIC_VALUE": 5.0}

Query: Note Marked adverse effect (Lowest dose first showed Ataxia) for the molecule shown: NCC(=O)NCC(=O)NCC(=O)NCC(=O)NCC(=O)NCCCC[C@H](NC(=O)[C@@H]1CCCN1C(=O)[C@@H]1CSSCCC(=O)N[C@@H](Cc2ccc(O)cc2)C(=O)N[C@@H](Cc2ccccc2)C(=O)N[C@@H](CCCC(N)=O)C(=O)N[C@@H](CC(N)=O)C(=O)N1)C(=O)NCC(N)=O
Result: 1.5

====

Overview of reported Marked adverse effect (Lowest dose first showed Ataxia) across a group of molecules:
experiment: Therapeutic index (NOAEL/NOEL): paleness, lethargy, ataxia observation in Sprague-Dawley rats (Example 7); type: in vivo; conditions: rat, in vivo, sc

Here's what some known entries look like.
{"SMI": "NCCCC[C@H](NC(=O)[C@@H]1CCCN1C(=O)[C@@H]1CSSCCC(=O)N[C@@H](Cc2ccc(O)cc2)C(=O)N[C@@H](Cc2ccccc2)C(=O)N[C@@H](CCCC(N)=O)C(=O)N[C@@H](CC(N)=O)C(=O)N1)C(=O)NCC(N)=O", "RESULT": "0.15 mg/kg"}
{"SMI": "NCC(=O)NCC(=O)NCC(=O)NCC(=O)NCC(=O)NCC(=O)NCC(=O)NCCCC[C@H](NC(=O)[C@@H]1CCCN1C(=O)[C@@H]1CSSCCC(=O)N[C@@H](Cc2ccc(O)cc2)C(=O)N[C@@H](Cc2ccccc2)C(=O)N[C@@H](CCCC(N)=O)C(=O)N[C@@H](CC(N)=O)C(=O)N1)C(=O)NCC(N)=O", "RESULT": "1.5 mg/kg"}

Kindly review the next molecule as well.
Query: Consider the molecule NCC(=O)NCC(=O)NCC(=O)NCC(=O)NCC(=O)NCC(=O)NCC(=O)NCC(=O)NCC(=O)NCCCC[C@H](NC(=O)[C@@H]1CCCN1C(=O)[C@@H]1CSSCCC(=O)N[C@@H](Cc2ccc(O)cc2)C(=O)N[C@@H](Cc2ccccc2)C(=O)N[C@@H](CCC(N)=O)C(=O)N[C@@H](CC(N)=O)C(=O)N1)C(=O)NCC(N)=O . State its measured Marked adverse effect (Lowest dose first showed Ataxia).
Result: 5.0 mg/kg

====

assay: Therapeutic index (NOAEL/NOEL): paleness, lethargy, ataxia observation in Sprague-Dawley rats (Example 7); type: in vivo; settings: in vivo, sc; S.C.; rat; read-out: Highest dose with no-observed adverse effect level without lethargy (NOAEL)
Where a SMILES comes first, the peptide text is derived from it. Bridges are numbered along the chain shown (N, C = ends). [ ]: non-standard residue; d: D form. Aad = N[C@@H](CCCC(=O)O)C(=O)O; Dab = NCC[C@H](N)C(=O)O; Mpa = O=C(O)CCS
Catalogue of NOAEL values
Quick reminder: number only, in mg/kg, skip the unit.

Query: Please give measured NOAEL of the following entry: CCCCCCCCCCCC(=O)NCCCC[C@H](NC(=O)[C@@H]1CCCN1C(=O)[C@@H]1CSSCCC(=O)N[C@@H](Cc2ccc(O)cc2)C(=O)N[C@@H](Cc2ccccc2)C(=O)N[C@@H](CCCC(N)=O)C(=O)N[C@@H](CC(N)=O)C(=O)N1)C(=O)NCC(N)=O
Result: 9

Query: Fill in NOAEL for record NCC[C@H](NC(=O)[C@@H]1CCCN1C(=O)[C@@H]1CSSCCC(=O)N[C@@H](Cc2ccc(O)cc2)C(=O)N[C@@H](Cc2ccccc2)C(=O)N[C@@H](CCCC(N)=O)C(=O)N[C@@H](CC(N)=O)C(=O)N1)C(=O)NCC(N)=O [SEQ ID NO. 31, Mpa-Tyr-Phe-Hgn-Asn-Cys-Pro-Dab-Gly-NH2] ([Mpa]YF[Aad](NH2)NCP[Dab]G-NH2; disulfide 1-6)
Result: 0.005

====

assay: Therapeutic index (NOAEL/NOEL): paleness, lethargy, ataxia observation in Sprague-Dawley rats (Example 7); assay type: in vivo; details: S.C.; rat
Where a SMILES comes first, the peptide text is derived from it. Bridges are numbered along the chain shown (N, C = ends). [ ]: non-standard residue; d: D form. Aad = N[C@@H](CCCC(=O)O)C(=O)O; Dap = NC[C@H](N)C(=O)O; Mpa = O=C(O)CCS
Highest dose with no-observed effect level or paleness (NOEL) strictly less than 2 µg/kg = criterion met. Otherwise criterion not met.

Reference set (5 entries):
{"COMPOUND": "NCCCCCCCCCCCC(=O)NCCCC[C@H](NC(=O)[C@@H]1CCCN1C(=O)[C@@H]1CSSCCC(=O)N[C@@H](Cc2ccc(O)cc2)C(=O)N[C@@H](Cc2ccccc2)C(=O)N[C@@H](CCCC(N)=O)C(=O)N[C@@H](CC(N)=O)C(=O)N1)C(=O)NCC(N)=O [SEQ ID NO. 19]", "LABEL": "criterion not met"}
{"COMPOUND": "CC(=O)NCCCC[C@H](NC(=O)[C@@H]1CCCN1C(=O)[C@@H]1CSSCCC(=O)N[C@@H](Cc2ccc(O)cc2)C(=O)N[C@@H](Cc2ccccc2)C(=O)N[C@@H](CCCC(N)=O)C(=O)N[C@@H](CC(N)=O)C(=O)N1)C(=O)NCC(N)=O [SEQ ID NO. 28]", "LABEL": "criterion not met"}
{"COMPOUND": "NCC(=O)NCC(=O)NCC(=O)NCC(=O)NCC(=O)NCC(=O)NCCCC[C@H](NC(=O)[C@@H]1CCCN1C(=O)[C@@H]1CSSCCC(=O)N[C@@H](Cc2ccc(O)cc2)C(=O)N[C@@H](Cc2ccccc2)C(=O)N[C@@H](CCCC(N)=O)C(=O)N[C@@H](CC(N)=O)C(=O)N1)C(=O)NCC(N)=O [SEQ ID NO. 13]", "LABEL": "criterion not met"}
{"COMPOUND": "NC[C@H](NC(=O)[C@@H]1CCCN1C(=O)[C@@H]1CSSCCC(=O)N[C@@H](Cc2ccc(O)cc2)C(=O)N[C@@H](Cc2ccccc2)C(=O)N[C@@H](CCCC(N)=O)C(=O)N[C@@H](CC(N)=O)C(=O)N1)C(=O)NCC(N)=O [SEQ ID NO. 17, Mpa-Tyr-Phe-Hgn-Asn-Cys-Pro-Dap-Gly-NH2] ([Mpa]YF[Aad](NH2)NCP[Dap]G-NH2; disulfide 1-6)", "LABEL": "criterion not met"}
{"COMPOUND": "NCC(=O)NCC(=O)NCC(=O)NCC(=O)NCC(=O)NCC(=O)NCCCC[C@H](NC(=O)[C@@H]1CCCN1C(=O)[C@@H]1CSSCCC(=O)N[C@@H](Cc2ccc(O)cc2)C(=O)N[C@@H](Cc2ccccc2)C(=O)N[C@@H](CCC(N)=O)C(=O)N[C@@H](CC(N)=O)C(=O)N1)C(=O)NCC(N)=O [SEQ ID NO. 20]", "LABEL": "criterion met"}

Query: Answer whether the compound NCC(=O)NCC(=O)NCC(=O)NCC(=O)NCC(=O)NCC(=O)NCC(=O)NCC(=O)NCC(=O)NCCCC[C@H](NC(=O)[C@@H]1CCCN1C(=O)[C@@H]1CSSCCC(=O)N[C@@H](Cc2ccc(O)cc2)C(=O)N[C@@H](Cc2ccccc2)C(=O)N[C@@H](CCCC(N)=O)C(=O)N[C@@H](CC(N)=O)C(=O)N1)C(=O)NCC(N)=O [SEQ ID NO. 16] has Highest dose with no-observed effect level or paleness (NOEL) strictly less than 2 µg/kg
Result: criterion not met
